tested on: MCF-7 mammary cancer cell; assay: MCF-7 mammary cancer cell assay (antiproliferative activity); type: cell-based; details: MCF-7 mammary cancer cells
Endpoint: MCF-7, -log IC50
Field format: numeric only.

Take a look at these entries with their results.
>  <Compound>
C=C1/C(=C\C=C2/CCC[C@]3(C)[C@@H]([C@@H](C)[C@@H](C#CC[C@@](O)(CC)[C@@H](C)O)OCC)CC[C@@H]23)C[C@@H](O)C[C@@H]1O

>  <MCF-7, -log IC50>
9.8

$$$$
>  <Compound>
C=C1/C(=C\C=C2/CCC[C@]3(C)[C@@H]([C@H](C)CCCC(C)(C)O)CC[C@@H]23)C[C@@H](O)C[C@@H]1O

>  <MCF-7, -log IC50>
7.7

$$$$
>  <Compound>
C=C1C(=CC=C2CCCC3(C)C2CCC3C(C)C(C#CCC(O)(CC)C(C)O)OCC)CC(O)CC1O (stereo not shown)

>  <MCF-7, -log IC50>
9.9

$$$$

# input for lookup
q: Recorded MCF-7, -log IC50 for C=C1C(=CC=C2CCCC3(C)C2CCC3C(C)C(C#CCC(O)(CC)CC)OCC)CC(O)CC1O (stereo not shown) , please?
a: 10.2

* * *

tested on: MCF-7 mammary cancer cell; assay: MCF-7 mammary cancer cell assay (antiproliferative activity); format: cell-based; conditions: geometric mean of the ratios relative to 1α,25(OH)2D3; higher = more potent
Endpoint: MCF-7, rel.
Field format: numeric only.

Take a look at these entries with their results.
>  <Compound>
C=C1C(=CC=C2CCCC3(C)C2CCC3C(C)C(C#CCC(O)(CC)CC)OCC)CC(O)CC1O (stereo not shown)

>  <MCF-7, rel.>
311

$$$$
>  <Compound>
C=C1C(=CC=C2CCCC3(C)C2CCC3C(C)C(C#CCC(O)(CC)C(C)O)OCC)CC(O)CC1O (stereo not shown)

>  <MCF-7, rel.>
153

$$$$
>  <Compound>
C=C1/C(=C\C=C2/CCC[C@]3(C)[C@@H]([C@@H](C)[C@@H](C#CC[C@@](O)(CC)[C@@H](C)O)OCC)CC[C@@H]23)C[C@@H](O)C[C@@H]1O

>  <MCF-7, rel.>
89

$$$$

# input for lookup
q: Recorded MCF-7, rel. for C=C1/C(=C\C=C2/CCC[C@]3(C)[C@@H]([C@H](C)CCCC(C)(C)O)CC[C@@H]23)C[C@@H](O)C[C@@H]1O , please?
a: 1.0
